Just for reference, patent US20240115557A1 is where these values come from.

molecular target: SpCas9 (Streptococcus pyogenes serotype M1, UniProt Q99ZW2); assay: eGFP disruption assay, SpCas9, U2OS.eGFP.PEST cells; assay type: cell-based; conditions: replicate 1
Sequence (Q99ZW2 whole entry): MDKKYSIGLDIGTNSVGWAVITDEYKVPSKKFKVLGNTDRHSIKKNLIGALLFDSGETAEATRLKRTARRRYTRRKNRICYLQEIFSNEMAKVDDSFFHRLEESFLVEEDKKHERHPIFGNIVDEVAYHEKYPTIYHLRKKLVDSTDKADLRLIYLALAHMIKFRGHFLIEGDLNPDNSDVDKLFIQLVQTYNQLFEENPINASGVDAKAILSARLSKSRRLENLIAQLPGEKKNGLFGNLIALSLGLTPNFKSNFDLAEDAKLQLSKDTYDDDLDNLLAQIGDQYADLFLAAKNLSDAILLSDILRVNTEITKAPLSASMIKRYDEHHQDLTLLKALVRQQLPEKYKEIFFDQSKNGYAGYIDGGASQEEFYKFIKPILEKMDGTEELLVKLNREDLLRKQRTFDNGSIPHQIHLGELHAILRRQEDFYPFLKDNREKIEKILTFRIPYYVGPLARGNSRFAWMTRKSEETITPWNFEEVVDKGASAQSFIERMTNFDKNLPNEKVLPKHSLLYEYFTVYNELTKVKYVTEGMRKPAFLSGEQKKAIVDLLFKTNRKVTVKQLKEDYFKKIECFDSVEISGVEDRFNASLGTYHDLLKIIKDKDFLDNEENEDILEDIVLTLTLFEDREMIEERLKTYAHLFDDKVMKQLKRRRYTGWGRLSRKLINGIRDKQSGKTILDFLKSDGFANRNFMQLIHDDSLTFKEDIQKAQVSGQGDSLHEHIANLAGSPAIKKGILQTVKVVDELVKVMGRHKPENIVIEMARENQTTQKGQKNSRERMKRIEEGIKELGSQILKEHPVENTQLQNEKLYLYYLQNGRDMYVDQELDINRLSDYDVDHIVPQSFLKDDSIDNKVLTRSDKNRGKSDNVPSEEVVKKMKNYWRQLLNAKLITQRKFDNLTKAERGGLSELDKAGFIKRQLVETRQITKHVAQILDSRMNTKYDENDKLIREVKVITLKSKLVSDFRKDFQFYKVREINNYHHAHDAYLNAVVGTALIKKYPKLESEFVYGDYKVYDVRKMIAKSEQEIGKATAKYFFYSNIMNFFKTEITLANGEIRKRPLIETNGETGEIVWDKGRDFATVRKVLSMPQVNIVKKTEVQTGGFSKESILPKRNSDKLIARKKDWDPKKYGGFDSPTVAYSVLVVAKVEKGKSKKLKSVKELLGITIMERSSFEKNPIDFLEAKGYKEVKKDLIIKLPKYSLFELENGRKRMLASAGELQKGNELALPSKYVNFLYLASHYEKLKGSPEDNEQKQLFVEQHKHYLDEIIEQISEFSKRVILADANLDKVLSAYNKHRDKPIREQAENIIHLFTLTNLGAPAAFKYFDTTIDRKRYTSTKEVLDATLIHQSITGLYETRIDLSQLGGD
Normalized Z rep1 of -0.3 or higher: Met. Under -0.3: Not met.

Exam item: decide whether the reported Normalized Z rep1 for Cc1ccc(-c2nn3c(-c4cccnc4)nnc3s2)cc1 is at least -0.3.
Marked response: Not met

Exam item: decide whether the reported Normalized Z rep1 for COc1ccc(-c2cc3c(C)nc(N)nc3n(C3CCC(OCCO)CC3)c2=O)cn1 (stereo not drawn) is at least -0.3.
Marked response: Not met

Exam item: decide whether the reported Normalized Z rep1 for CS(=O)(=O)Nc1cnc(N2CCC(CCN3CCOCC3)CC2)c(C(=O)O)c1 is at least -0.3.
Marked response: Not met

Exam item: decide whether the reported Normalized Z rep1 for CCCN1CCN(c2ccc(C(=O)O)cc2NC(=O)c2ccccc2Cl)CC1 is at least -0.3.
Marked response: Met

Exam item: decide whether the reported Normalized Z rep1 for Cc1ccccc1OCc1nn2c(C(C)C)nnc2s1 is at least -0.3.
Marked response: Not met

* * *

target: SpCas9 (Streptococcus pyogenes serotype M1); assay: eGFP disruption assay, SpCas9, U2OS.eGFP.PEST cells; assay type: cell-based; conditions: replicate 2, raw readout
Numbered stars: 1 amine (or outer) side, 2 acyl side, 3 side chain; on linkers, the order of the positions; unused ones are H or OH. Bridge positions count the residues as written; N and C are the ends. Square brackets hold non-standard residues; d marks the D form. Peptide text beside a SMILES is read from it. I, II: the chains in the order shown. Actinocin(9to1) = Cc1c2oc3c(C)ccc(C(=O)[*:1])c3nc-2c(C(=O)[*:2])c(N)c1=O; NMeV = CN[C@H](C(=O)O)C(C)C; Sar = CNCC(=O)O
ASSAY_ENDPOINT: SpCas9 eGFP disruption Rep2
Just the number, please, no unit after it.

Exam item: Provide one value: measured SpCas9 eGFP disruption Rep2 of Brc1cccc(-c2nn3c(-c4cccnc4)nnc3s2)c1
Marked response: 65.459

Exam item: Provide one value: measured SpCas9 eGFP disruption Rep2 of CN(C)S(=O)(=O)Nc1ccc(N2CCCC(CN3CCCC3)C2)c(C(=O)O)c1 (stereo not shown)
Marked response: 53.339

Exam item: Provide one value: measured SpCas9 eGFP disruption Rep2 of NC(=O)c1c(NC(=O)COCc2cc(-c3ccc4c(c3)OCO4)on2)sc2c1CCCC2
Marked response: 54.219

Exam item: Provide one value: measured SpCas9 eGFP disruption Rep2 of NS(=O)(=O)c1ccc(CCNC(=O)C2=Cc3sc4c(c3CS2)CCCC4)cc1
Marked response: 66.773

Exam item: Provide one value: measured SpCas9 eGFP disruption Rep2 of Cc1cc(Sc2ccccc2NC(=O)c2cccc(F)c2)n2ncnc2n1
Marked response: 61.293

Exam item: Provide one value: measured SpCas9 eGFP disruption Rep2 of Cc1c2oc3c(C)ccc(C(=O)N[C@@H]4C(=O)N[C@H](C(C)C)C(=O)N5CCC[C@H]5C(=O)N(C)CC(=O)N(C)[C@@H](C(C)C)C(=O)O[C@@H]4C)c3nc-2c(C(=O)N[C@@H]2C(=O)N[C@H](C(C)C)C(=O)N3CCC[C@H]3C(=O)N(C)CC(=O)N(C)[C@@H](C(C)C)C(=O)O[C@@H]2C)c(N)c1=O [SAM001246846] (I: T[dV]P[Sar][NMeV] / II: T[dV]P[Sar][NMeV]; ester I:1-I:C, II:1-II:C; linker I:N-II:N via Actinocin(9to1))
Marked response: 24.765

Exam item: Provide one value: measured SpCas9 eGFP disruption Rep2 of CCCCN(CC)C(=O)C1CCCN(c2ccc(-c3ccccc3C)nn2)C1 (stereo not shown)
Marked response: 52.541
